Assay: autophagy modulators in MEF cells, primary screen, imaging, high-content, MEF GFP-LC3 (AID 463193);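 for % cells with GFP-LC3 spots: spot-positive cell cutoff set from DMSO-treated cells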
Conditions: MEF GFP-LC3 puncta imaging, at 10 µM; stronger effect = higher value
In all, about 190,000 compounds went through this assay and about 1,900 (1%) were called active. Only a selection was taken, and actives are over-represented in it overall.
// classify(record): look up % cells with GFP-LC3 spots in ranges lowest (below 2%), middle (2% to below 10%), highest (10% or more)

Known results for compounds:
1) COc1ccc2cc(-c3[nH]ncc3CNCCn3nc(C)cc3C)ccc2c1 :: highest
2) O=C(CSc1nc(-c2ccco2)cc(C(F)(F)F)n1)NCc1cccs1 :: highest
3) CCCOc1ccc(N/C=C/C(=O)C(C)(C)C)cc1 :: lowest
4) Cc1nc(Nc2ccc3c(c2)OCCO3)c2nnn(Cc3ccccc3Cl)c2n1 :: middle
5) O=C(CSc1ncnc2c1nnn2Cc1ccc(F)cc1)NC1CCCC1 :: highest

Here's the next entry for you.
Pick a category. Item: CCCOc1ccc(NC(=O)C2CCCNC2=O)cc1 (stereo not drawn) highest

---

Assay: autophagy modulators in MEF cells, primary screen, imaging, high-content, MEF GFP-LC3 (AID 463193)
Details: MEF GFP-LC3 puncta imaging, at 10 µM
In all, about 190,000 compounds went through this assay and about 1,900 (1%) were called active.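 Rule for the calls: active = percentage of spot-positive cells more than 3 SD above its plate mean, without a fluorescence outlier flag or 80% toxicity; inconclusive = no clear call, values can overlap the other calls; inactive = the rest.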 The sample as a whole holds a higher share of actives than the screen did.
Lab note: assign the record to one of label 1 = active, label 0 = inactive

Answered examples (5):
1) N#Cc1c(-c2ccc(F)cc2)cc(C2CC2)nc1SCC(=O)c1cccs1 :: label 1
2) O=C(O)c1cccc(N=NN2CCCCCC2)c1 :: label 0
3) CCOC(=O)N1CC=C2C(C#N)=C(N)C(C#N)(C#N)[C@H](c3cccs3)[C@H]2C1 :: label 0
4) O=C(Nc1cccc(F)c1)N1C2CCC1CC(O)(c1cccnc1)C2 (stereo not drawn) :: label 0
5) CCOCCCNC(=O)C(NC(=O)c1ccc(=O)[nH]c1)c1ccc(C)cc1 (stereo not drawn) :: label 0

Could you check what this test reported for O=C(NCCc1c[nH]c2ccccc12)C(=O)NCC1CCCO1 (stereo not drawn) ? label 0

Record lookup: outcome of this test for CCC1=C(C(=O)OC)C(c2cc(OC)ccc2OC)C(C#N)=C(N)O1 (stereo not drawn) ? label 0

Short answer needed: outcome of this test for O=C(CCn1c(SCC(=O)c2ccccc2)nc2ccccc2c1=O)NCc1ccc(F)cc1 ? label 0

What is the recorded call for this compound in the test? O=[N+]([O-])c1ccc(Sc2n[nH]c(-c3ccco3)n2)nc1 label 0

Look up the recorded call for CCSc1nc(C)nc2c1oc1ccccc12 in this test. label 0

---

// values below are reported toxicity
Experiment: autophagy modulators in MEF cells, primary screen, imaging, high-content, MEF GFP-LC3 (AID 463193);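 for toxicity: cell loss after 18 h compound exposure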
Details: MEF GFP-LC3 puncta imaging, at 10 µM; measured here: cell loss, nuclei count
Out of some 190,000 compounds screened, about 1,900 (1%) were called active. The list comes from a sample in which actives are over-represented; it also holds close analogues and randomly drawn compounds.
A complete answer gives the number followed by the unit.

Below are worked cases with known answers.
1) Clc1ccc(CN2CCN(/N=C/c3cccnc3)CC2)cc1 :: -10.7%
2) COC(=O)COc1ccc(C2NC(=O)NC(C)=C2C(=O)NCc2ccccc2)cc1OC (stereo not given) :: 20.4%

Item under review: Cc1cc(C)c2c(n1)nn1c(-n3ccnc3)cc(C)nc21 . Reported toxicity? 8.53%

Query (compound): COC(=O)c1ccc(C(=O)Nc2cc(Cl)ccc2Cl)cc1NC(=O)c1ccccc1C ; field requested: toxicity -19.2%

Request the reported toxicity associated with COc1cc(N=Cc2c(O)[nH]c3ccccc23)cc(OC)c1OC 14.8%

Which toxicity is reported for this compound? COc1ccccc1Nc1ncnc2c1oc1ccccc12 1.55%

Give its toxicity value. Item: CC(=O)/C(=N\Nc1ccc(Cl)cc1Cl)Sc1cccc2cccnc12 -7.61%

Looking for the measured toxicity of Cc1ccc(NC(=O)OCCNC(=O)c2ccncc2)cc1 , can you help? 0.481%

Which toxicity is listed for O=C(Cc1ccccc1)NNS(=O)(=O)c1ccc([N+](=O)[O-])cc1 ? -4.08%

Recorded toxicity of CCc1ccc2c(c1)C1(NN=C(c3ccccc3)S1)C(=O)N2 (stereo not given) , please. 40.3%

May I ask what toxicity has been recorded for COc1ccc(CCNC(=O)CCn2c(=O)oc3ccccc32)cc1OC ? -1.63%
